test: chemical recovery by SPE of plasma after PDMS sampling; higher = better extraction; details: pooled human plasma; extraction method: HLB SPE of plasma after PES; equilibration time (d): 6;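 also: over 400 spiked chemicals quantified by LC-HRMS or GC-HRMS via internal standard calibration, recovery relative to spike mix added to unspiked plasma extract to correct matrix effects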
recorded.metric: chemical recovery by SPE of plasma (%)
Give the value in % but do not write % after it.

Please fill in: chemical recovery by SPE of plasma reported for CCCOP(=O)(OCCC)OCCC [Tripropyl phosphate] = 1.1

Please fill in: chemical recovery by SPE of plasma reported for Clc1ccc(Cl)c(-c2cccc(Cl)c2Cl)c1 [PCB44] = 1.42

Please fill in: chemical recovery by SPE of plasma reported for CCNC(=O)[C@@H](C)OC(=O)Nc1ccccc1 [Carbetamide] = 37.2

Please fill in: chemical recovery by SPE of plasma reported for CSc1nnc(C(C)(C)C)c(=O)n1N [Metribuzin] = 10.4

Please fill in: chemical recovery by SPE of plasma reported for O=C(Nc1ccc(Cl)cc1)Nc1ccc(Cl)c(Cl)c1 [Triclocarban] = 24.3

meta.source: the supplement of paper PMC10702517
